System: SK-OV-3 ovarian
assay comment: NCI-60 one-dose screen, 48 h (100 = growth as untreated, 0 = no growth, -100 = all killed)
conditions: 10 µM unless noted
Experimental: Growth inhibition of the SK-OV-3 human tumor cell line is measured as a screen for anti-cancer activity. Cells are grown in 96 well plates and exposed to the test compound for 48 hours. Compounds are tested at a single concentration, which is 10^-5 M for most compounds. The reported endpoint is percent growth (GI% or GIPRCNT), where numbers from 0 - 100% represent growth inhibition, and numbers from -100% - 0 represent cell death. For example, a value of 40 represents 60% growth inhibition. […]
Compounds without any hit were thinned out: in the full panel of roughly 83,000, 20% have a hit.

compound: CC(C)(C)c1ccc(-c2nnc(-c3nc4ccccc4nc3Cl)o2)cc1
unit info: %
growth: 95.9
--
compound: Cc1ccc(-n2cc(/C=N/NC(=O)c3nc(N)n[nH]3)c(-c3ccc(S(C)(=O)=O)cc3)n2)cc1
unit info: %
growth: 104
--
compound: CC(=O)Nc1cccc(Nc2nc(N[C@@H](C)c3ccccc3)c3ccccc3n2)c1
unit info: %
growth: 53.6
--
compound: COC(=O)C1(C)CCC[C@]2(C)[C@H]3C[C@H]4C(C(C)C)=C[C@]3(CC[C@@H]12)[C@H]1[C@@H]4[C@@H](OC(=O)c2ccco2)CC[C@@H]1OC(=O)c1ccco1 (stereo partly drawn)
unit info: %
growth: 115
--
compound: CCCCCc1ccc(S(=O)(=O)Nc2cccc(-c3csc(NC(=O)CN4CCN(C)CC4)n3)c2)cc1
unit info: %
growth: 90.6
--
compound: O=C1[C@H]2Cc3c([nH]c4ccccc34)[C@@H](c3ccc(Br)cc3)N2C(=O)CN1C1CCN(CC2CCCCC2)CC1
unit info: %
growth: 64.7
--
compound: Cc1cc(S(=O)(=O)N(C)C)cc(NCC(=O)NC(=O)NCC(C)C)c1C
unit info: %
growth: 112
--
compound: O=C(CSc1nc2ccccc2c(=O)n1-c1ccccc1)Nc1ccc(-c2nc3ccc([N+](=O)[O-])cc3[nH]2)cc1
unit info: %
growth: 106
